TARGET_DESC: T1, Placenta Growth Factor (PlGF), human (human, UniProt P49763 21-149)
T1 chain: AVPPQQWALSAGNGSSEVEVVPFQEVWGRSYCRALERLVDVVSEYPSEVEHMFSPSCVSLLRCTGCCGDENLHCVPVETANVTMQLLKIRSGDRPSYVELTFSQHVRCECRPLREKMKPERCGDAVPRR
TEST_NAME: ELISA
Could you please report measured EC50 for the items listed next?
Numbers only, in nM.

Below: 3 binders and their reported EC50.
HC 8/SLC 7 (antibody) chain 1: GQGTLVTVSSASTKGPSVQPVLHQPPAMSSALGTTIRLTCTLRNDHDIGVYSVYWYQQRPGHPPRFLLRYFSQSDKSQGPQVPPRFSGSKDVARNRGYLSISELQPEDEAMYYCAMGARSRCWPRGFQSKHNSVTHVFGSGTQLTVLSQPKATPSVTLFPPSSEELQANKATLVCLMNDFYPGILTVTWKADGTPITQGVEMTTPSKQSNNKYAASSYLSLTPEQWRSRRSYSCQVMHEGSTVEKTVAPAECS chain 2: MSWAPVLLMLFVYCTGCGPQPVLHQPPAMSSALGTTIRLTCTLRNDHDIGVYSVYWYQQRPGHPPRFLLRYFSQSDKSQGPQVPPRFSGSKDVARNRGYLSISVTHVFGSGTQLTVLSQPKATPQVQLVQ    0.085
HC 10/SLC 3 (antibody) chain 1: GQGTLVTVSSASTKGPSVFPQPVLHQPPAMSSALGTTIRLTCTLRNDHDIGVYSVYWYQQRPGHPPRFLLRYFSQSDKSQGPQVPPRFSGSKDVARNRGYLSISELQPEDEAMYYCAMGARSRCWPRGFQSKHNSVTHVFGSGTQLTVLSQPKATPSVTLFPPSSEELQANKATLVCLMNDFYPGILTVTWKADGTPITQGVEMTTPSKQSNNKYAASSYLSLTPEQWRSRRSYSCQVMHEGSTVEKTVAPAECS chain 2: MSWAPVLLMLFVYCTGCGPQPVLHQPPAMSSALGTTIRLTCTLRNDHDIGVYSVYWYQQRPGHPPRFLLRYFSQSDKSQGPQVPPRFSGSKDVARNRGYLSISVTHVFGSGTQLTVLSQPQVQLVQ    0.121
HC 2/SLC 6 (antibody) chain 1: GQGTLVTVSSASQPVLHQPPAMSSALGTTIRLTCTLRNDHDIGVYSVYWYQQRPGHPPRFLLRYFSQSDKSQGPQVPPRFSGSKDVARNRGYLSISELQPEDEAMYYCAMGARSRCWPRGFQSKHNSVTHVFGSGTQLTVLSQPKATPSVTLFPPSSEELQANKATLVCLMNDFYPGILTVTWKADGTPITQGVEMTTPSKQSNNKYAASSYLSLTPEQWRSRRSYSCQVMHEGSTVEKTVAPAECS chain 2: MSWAPVLLMLFVYCTGCGPQPVLHQPPAMSSALGTTIRLTCTLRNDHDIGVYSVYWYQQRPGHPPRFLLRYFSQSDKSQGPQVPPRFSGSKDVARNRGYLSISVTHVFGSGTQLTVLSQPKATQVQLVQ    0.161

Attention now shifts to the item below.
Measured EC50 of HC 7/SLC 4 (antibody) chain 1: GQGTLVTVSSASTKGPSQPVLHQPPAMSSALGTTIRLTCTLRNDHDIGVYSVYWYQQRPGHPPRFLLRYFSQSDKSQGPQVPPRFSGSKDVARNRGYLSISELQPEDEAMYYCAMGARSRCWPRGFQSKHNSVTHVFGSGTQLTVLSQPKATPSVTLFPPSSEELQANKATLVCLMNDFYPGILTVTWKADGTPITQGVEMTTPSKQSNNKYAASSYLSLTPEQWRSRRSYSCQVMHEGSTVEKTVAPAECS chain 2: MSWAPVLLMLFVYCTGCGPQPVLHQPPAMSSALGTTIRLTCTLRNDHDIGVYSVYWYQQRPGHPPRFLLRYFSQSDKSQGPQVPPRFSGSKDVARNRGYLSISVTHVFGSGTQLTVLSQPKQVQLVQ : 0.204
